Values from patent US20250376535A1

- MEASURED_TARGET: T1, EGFR Fc (human, UniProt P00533 25-645)
- T1 construct: also called EGFR-hFc; recombinant human EGFR-Fc
- MEASUREMENT_DESCRIPTION: ELISA, EGFR Fc coated, VHH at 500 nM
This listing pairs binders with measured OD450.
READOUT_NAME: OD450

- pgEG-SX3 (VHH, not shown: small tags and cut ends) VHH: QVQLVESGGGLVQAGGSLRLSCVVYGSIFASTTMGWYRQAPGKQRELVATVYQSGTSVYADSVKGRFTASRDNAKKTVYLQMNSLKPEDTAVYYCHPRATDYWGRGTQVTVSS: 1.47
- pgEG-SX22 (VHH, not shown: small tags and cut ends) VHH: QVQLVESGGGLVQAGGSLRVSCAVSGGALSAYAMAWFRQAPGKEREFVAGLNWGGDETYYADSAKGRFTISKDNAKNTVSLQMNSLEPEDTAVYYCGGRPGPLLSRATGYKYWGQGTQVTVSS: 2.16
- pgEG5 (VHH, not shown: small tags and cut ends) VHH: QVQLVESGGGLVQPGGSLRLSCTASHNIFSDNAMAWSRQAPGAQRELVARIATGGNTYYPDSVKGRFTISRDNAKNTVYLQMNNLTPDDTAVYYCYAERWTGLEYSRTYWGQGTQVTVSS: 2.52
- pgEG-SX9 (VHH, not shown: small tags and cut ends) VHH: QVQLVESGGGLVQAGGSLRLSCAASVSGSALSNMAWYRQRPGNQRELVAHITFDNFTNYADSVKGRFTISRDNVKNTVDLQMSSLKPEDTAVYYCNARHFFGDNYWGKGTLVTVSS: 2.2
